Organism: Rattus norvegicus
assay.name: Open TG-GATES - Regimen: Single
Assay type: toxicity, organism-based, Sprague-Dawley
Design: regimen Single, gender Male, age 6 weeks
conditions.used: in vivo, po, 0 mg/kg, 3 h, tissue Plasma, route gavage, dose level Control
Collected TC values appear next to each entry.
Numeric answer only, unit mg/dL assumed.

Worked examples follow.
{"compound": "O=C(OC[C@H]1O[C@@H](OC(=O)c2cc(O)c(O)c(OC(=O)c3cc(O)c(O)c(O)c3)c2)[C@H](OC(=O)c2cc(O)c(O)c(OC(=O)c3cc(O)c(O)c(O)c3)c2)[C@@H](OC(=O)c2cc(O)c(O)c(OC(=O)c3cc(O)c(O)c(O)c3)c2)[C@@H]1OC(=O)c1cc(O)c(O)c(OC(=O)c2cc(O)c(O)c(O)c2)c1)c1cc(O)c(O)c(OC(=O)c2cc(O)c(O)c(O)c2)c1 [TANNIC ACID]", "measured.parameter": "TC", "test.value": 74.8}
{"compound": "CN/C(=N/CCSCc1nc[nH]c1C)NC#N [CIMETIDINE]", "measured.parameter": "TC", "test.value": 77.2}

Determine its reported TC: CCOc1ccc(NC(C)=O)cc1 [PHENACETIN]
87.8

----------
Organism: Rattus norvegicus
assay.name: Open TG-GATES - Regimen: Daily Repeat
Assay type: toxicity, organism-based, Sprague-Dawley
Design: regimen Daily Repeat, gender Male, age 6 weeks
conditions.used: in vivo, po, 1000 mg/kg, […], tissue Blood, route gavage, dose level High, time 7 day
Please assign class 0 whenever RBC is at or above 600 x10_4/ul, and class 1 whenever it is below.

Use these answered entries as a reference point.
{"compound": "CN/C(=N/CCSCc1nc[nH]c1C)NC#N [CIMETIDINE]", "classification": "class 0"}
{"compound": "CCOc1ccc(NC(C)=O)cc1 [PHENACETIN]", "classification": "class 1"}
{"compound": "CNC(=C[N+](=O)[O-])NCCSCc1ccc(CN(C)C)o1 [RANITIDINE]", "classification": "class 0"}

Would you kindly verify if RBC of Cc1nnc2n1-c1ccc(Cl)cc1C(c1ccccc1Cl)=NC2 [TRIAZOLAM] is strictly less than 600 x10_4/ul?
class 0

API: query returns whether the compound falls strictly under 600 x10_4/ul in RBC. Query: COC(=O)C1=C(C)NC(C)=C(C(=O)OC)C1c1ccccc1[N+](=O)[O-] [NIFEDIPINE]
class 0

----------
Organism: Rattus norvegicus
assay.name: Open TG-GATES - Regimen: Daily Repeat
Assay type: toxicity, organism-based, Sprague-Dawley
Design: regimen Daily Repeat, gender Male, age 6 weeks
conditions.used: in vivo, po, 1000 mg/kg, 72 h, tissue Blood, route gavage, dose level High, time 3 day
measured.parameter: Bas (%)
Reply numerically in %, unit not repeated.

Identify measured Bas associated with `CCOc1ccc(NC(C)=O)cc1`
0

Recall and state the measured Bas for `O=C(OC[C@H]1O[C@@H](OC(=O)c2cc(O)c(O)c(OC(=O)c3cc(O)c(O)c(O)c3)c2)[C@H](OC(=O)c2cc(O)c(O)c(OC(=O)c3cc(O)c(O)c(O)c3)c2)[C@@H](OC(=O)c2cc(O)c(O)c(OC(=O)c3cc(O)c(O)c(O)c3)c2)[C@@H]1OC(=O)c1cc(O)c(O)c(OC(=O)c2cc(O)c(O)c(O)c2)c1)c1cc(O)c(O)c(OC(=O)c2cc(O)c(O)c(O)c2)c1` .
0

Using known records, supply Bas for `Cc1nnc2n1-c1ccc(Cl)cc1C(c1ccccc1Cl)=NC2`
0.2

Recall and state the measured Bas for `CN/C(=N/CCSCc1nc[nH]c1C)NC#N` .
0

Let me know recorded Bas for `COC(=O)C1=C(C)NC(C)=C(C(=O)OC)C1c1ccccc1[N+](=O)[O-]` , thanks.
0

Annotate the compound `CNC(=C[N+](=O)[O-])NCCSCc1ccc(CN(C)C)o1` with its measured Bas.
0

----------
Organism: Rattus norvegicus
assay.name: Open TG-GATES - Regimen: Single
Format: toxicity, organism-based, Sprague-Dawley
Design: regimen Single, gender Male, age 6 weeks
conditions.used: in vivo, po, 0 mg/kg, 9 h, tissue Plasma, route gavage, dose level Control
Param label: returns fulfilled when RALB < 3 g/dL, returns not fulfilled otherwise, including exact equality.

Recorded results for 4 compounds are shown here.
{"compound": "CS(=O)(=O)O.Cc1ccc(NC(=O)c2ccc(CN3CCN(C)CC3)cc2)cc1Nc1nccc(-c2cccnc2)n1 [IMATINIB MESYLATE]", "classification": "not fulfilled"}
{"compound": "CN/C(=N/CCSCc1nc[nH]c1C)NC#N", "classification": "not fulfilled"}
{"compound": "Brc1ccccc1", "classification": "fulfilled"}
{"compound": "CCCc1cc(=O)[nH]c(=S)[nH]1", "classification": "not fulfilled"}

Determine whether this compound shows RALB lower than 3 g/dL (ties excluded): `COC(=O)C1=C(C)NC(C)=C(C(=O)OC)C1c1ccccc1[N+](=O)[O-]`
fulfilled

----------
This section presents compounds with their documented A/G values.
Organism: Rattus norvegicus
assay.name: Open TG-GATES - Regimen: Single
Format: toxicity, organism-based, Sprague-Dawley
Parameters: regimen Single, gender Male, age 6 weeks
conditions.used: in vivo, po, 0 mg/kg, 9 h, tissue Plasma, route gavage, dose level Control
// keep it numeric: no unit symbol after the value

Worked set:
{"compound": "CN1C(=O)CCS(=O)(=O)C1c1ccc(Cl)cc1 (stereo unspecified) [CHLORMEZANONE]", "A/G": 0.9}
{"compound": "CN(C)CCC(c1ccc(Cl)cc1)c1ccccn1 (stereo unspecified) [CHLORPHENIRAMINE]", "A/G": 0.9}
{"compound": "NC1=NC(=O)C(c2ccccc2)O1 (stereo unspecified) [PEMOLINE]", "A/G": 1}
{"compound": "CC(C)NNC(=O)c1ccncc1 [IPRONIAZID]", "A/G": 1.2}
{"compound": "CN/C(=N/CCSCc1nc[nH]c1C)NC#N [CIMETIDINE]", "A/G": 1.6}

Please give measured A/G of the following entry: Brc1ccccc1 [BROMOBENZENE]
0.9

Name the recorded A/G of the item CNC(=C[N+](=O)[O-])NCCSCc1ccc(CN(C)C)o1 [RANITIDINE] in your answer.
1.6

Quick one: give measured A/G for CCCc1cc(=O)[nH]c(=S)[nH]1 [PROPYLTHIOURACIL]
2

For Cc1nnc2n1-c1ccc(Cl)cc1C(c1ccccc1Cl)=NC2 [TRIAZOLAM] , write its A/G.
0.9

Give the reported value of A/G for this record: Nc1c2c(nc3ccccc13)CCCC2 [TACRINE]
1.3

Supply measured A/G of O=C(OC[C@H]1O[C@@H](OC(=O)c2cc(O)c(O)c(OC(=O)c3cc(O)c(O)c(O)c3)c2)[C@H](OC(=O)c2cc(O)c(O)c(OC(=O)c3cc(O)c(O)c(O)c3)c2)[C@@H](OC(=O)c2cc(O)c(O)c(OC(=O)c3cc(O)c(O)c(O)c3)c2)[C@@H]1OC(=O)c1cc(O)c(O)c(OC(=O)c2cc(O)c(O)c(O)c2)c1)c1cc(O)c(O)c(OC(=O)c2cc(O)c(O)c(O)c2)c1 [TANNIC ACID] in your reply.
1.9

----------
Catalogue of CRE values
Species on record: Rattus norvegicus
assay.name: Open TG-GATES - Regimen: Single
Format: toxicity, organism-based, Sprague-Dawley
Design: regimen Single, gender Male, age 6 weeks
conditions.used: in vivo, po, 0 mg/kg, 6 h, tissue Plasma, route gavage, dose level Control

Answered examples (8):
{"compound": "NC1=NC(=O)C(c2ccccc2)O1 (centres undefined)", "CRE": "0.2 mg/dL"}
{"compound": "Cc1nnc2n1-c1ccc(Cl)cc1C(c1ccccc1Cl)=NC2", "CRE": "0.2 mg/dL"}
{"compound": "CN/C(=N/CCSCc1nc[nH]c1C)NC#N", "CRE": "0.4 mg/dL"}
{"compound": "O=C(OC[C@H]1O[C@@H](OC(=O)c2cc(O)c(O)c(OC(=O)c3cc(O)c(O)c(O)c3)c2)[C@H](OC(=O)c2cc(O)c(O)c(OC(=O)c3cc(O)c(O)c(O)c3)c2)[C@@H](OC(=O)c2cc(O)c(O)c(OC(=O)c3cc(O)c(O)c(O)c3)c2)[C@@H]1OC(=O)c1cc(O)c(O)c(OC(=O)c2cc(O)c(O)c(O)c2)c1)c1cc(O)c(O)c(OC(=O)c2cc(O)c(O)c(O)c2)c1", "CRE": "0.5 mg/dL"}
{"compound": "CCOc1ccc(NC(C)=O)cc1", "CRE": "0.2 mg/dL"}
{"compound": "CC(C)NNC(=O)c1ccncc1", "CRE": "0.2 mg/dL"}
{"compound": "CS(=O)(=O)O.Cc1ccc(NC(=O)c2ccc(CN3CCN(C)CC3)cc2)cc1Nc1nccc(-c2cccnc2)n1 [IMATINIB MESYLATE]", "CRE": "0.2 mg/dL"}
{"compound": "CN(C)CCC(c1ccc(Cl)cc1)c1ccccn1 (centres undefined)", "CRE": "0.2 mg/dL"}

Hello, please tell me recorded CRE for this one: `CNC(=C[N+](=O)[O-])NCCSCc1ccc(CN(C)C)o1`
0.4 mg/dL

Return the recorded CRE value; entry: `Nc1c2c(nc3ccccc13)CCCC2`
0.2 mg/dL

Return CRE for the following compound: `COC(=O)C1=C(C)NC(C)=C(C(=O)OC)C1c1ccccc1[N+](=O)[O-]`
0.2 mg/dL

Give the value of CRE reported for the following: CN1C(=O)CCS(=O)(=O)C1c1ccc(Cl)cc1 (centres undefined)
0.2 mg/dL

Answer with the recorded CRE of `CCCc1cc(=O)[nH]c(=S)[nH]1` only.
0.5 mg/dL

Provide CRE value for the following compound: `Brc1ccccc1`
0.2 mg/dL
